pIC50: −log10 of the molar value.
Note to self: these compounds have pIC50 reported for RAC-gamma serine/threonine-protein kinase (Homo sapiens) in various publications.

Known results for compounds:
NC(=O)c1cccc(-c2cnc3[nH]cc(C(=O)c4cc(O)ccc4F)c3c2)c1	≥ 5.00
NC1(c2ccc(-c3nc4c(cc3-c3ccccc3)N(CC(F)F)C(=O)CO4)cc2)CCC1	6.00 to 7.00
Cn1ncc(-c2cccc3ccccc23)c1-c1ccc2c(c1)CN([C@H](CN)Cc1cccc(F)c1)C2=O	< 5.30
Cn1ncc(Cl)c1-c1ccc2c(c1)CN([C@H](CN)Cc1cccc(C#N)c1)C2=O	> 6.30
NC[C@H](Cc1ccc(F)c(F)c1F)NC(=O)c1cc2c(s1)CCCn1ncc(Br)c1-2	7.80
CCc1nnc2n1-c1cc(-c3ccccc3)c(-c3ccc([C@]4(N)C[C@](C)(O)C4)cc3)nc1OC2	5.00 to 6.00
CC(=O)c1cccc(Nc2ccnc3[nH]ccc23)c1	≥ 5.00
O=C(c1ccc(O)cc1Cl)c1c[nH]c2ncccc12	≥ 5.00
Fc1cccc(Nc2ccnc3[nH]ccc23)c1	≥ 5.00
Fc1ccc(Nc2ccnc3[nH]ccc23)cc1	≥ 5.00

Record NC1(c2ccc(-c3nc4c(cc3-c3ccccc3)-c3n[nH]c(=O)n3CC4)cc2)CCC1 , field pIC50: < 5.00

Record Clc1ccc(-c2ccnc3[nH]ccc23)cn1 , field pIC50: ≥ 5.00

Record COc1cccc(C(CN)N2Cc3cc(-c4c(Cl)cnn4C)ccc3C2=O)c1 (stereo not shown) , field pIC50: 5.30 to 6.30

###

Note to self: these compounds have IC50 reported for RAC-gamma serine/threonine-protein kinase (Homo sapiens) in various publications.

Known results for compounds:
NC1(c2ccc(-c3nc4c(cc3-c3ccccc3)N(Cc3cccnc3)C(=O)CO4)cc2)CCC1	0.1 to 1 µM
CN1CCc2nc(-c3ccc(C4(N)CCC4)cc3)c(-c3ccccc3)cc2C1=O	> 10 µM
Cc1cnn2c1-c1cc(C(=O)N[C@H](CN)Cc3cccc(F)c3)sc1CCC2	0.06 µM
COCc1cnn(C)c1-c1ccc2c(c1)CN([C@H](CN)Cc1cccc(F)c1)C2=O	< 0.5 µM
CC(C)Cn1nccc1-c1ccc2c(c1)CN([C@H](CN)Cc1cccc(F)c1)C2=O	> 5 µM
NC[C@@H](NC(=O)c1cc2c(s1)CCCn1ncc(Cl)c1-2)c1ccccc1	0.189 µM
NC1(c2ccc(-c3nc4c(cc3-c3ccccc3)N(CCF)C(=O)CCN4)cc2)CCC1	1 to 10 µM

Sample NC1(c2ccc(-c3nc4c(cc3-c3ccccc3)-n3c(nn(CC(F)(F)F)c3=O)CO4)cc2)CCC1 , system: RAC-gamma serine/threonine-protein kinase (Homo sapiens). Its IC50 is 1 to 10 µM

###

Note to self: these molecules have IC50 reported for RAC-gamma serine/threonine-protein kinase (Homo sapiens) in various publications.

Known results for molecules:
CSc1[nH]nc2c1CCc1nc(-c3ccc(C4(N)CCC4)cc3)c(-c3ccccc3)cc1-2	> 10 µM
CCc1nnc2n1-c1cc(-c3ccccc3)c(-c3ccc(C4(N)CCC4)cc3)nc1OC2	1 to 10 µM
NC1(c2ccc(-c3nc4c(cc3-c3ccccc3)N(CCF)C(=O)N(CCF)C4)cc2)CCC1	0.1 to 1 µM
c1cc2cc(Nc3ccc(N4CCCCC4)cc3)cnc2[nH]1	≤ 10 µM
Cn1nccc1-c1ccc2c(c1)CN([C@H](CN)Cc1cccc(-c3ccncc3)c1)C2=O	> 5 µM

Sample NC[C@H](Cc1ccc(F)c(F)c1)NC(=O)c1cc2c(s1)CCCn1ncc(Cl)c1-2 , system: RAC-gamma serine/threonine-protein kinase (Homo sapiens). Its IC50 is 0.024 µM

Sample COCCN1C(=O)COc2nc(-c3ccc(C4(N)CCC4)cc3)c(-c3ccccc3)cc21 , system: RAC-gamma serine/threonine-protein kinase (Homo sapiens). Its IC50 is 1 to 10 µM

Sample Cn1nccc1-c1cc2c(cn1)C(=O)N([C@H](CN)CC1CCCCC1)C2 , system: RAC-gamma serine/threonine-protein kinase (Homo sapiens). Its IC50 is < 0.5 µM

###

pIC50: −log10 of the molar value.
Note to self: these molecules have pIC50 reported for RAC-gamma serine/threonine-protein kinase (Homo sapiens, UniProt Q9Y243) in various publications.

Known results for molecules:
Cn1ncc(Cl)c1-c1ccc2c(c1)CN(C(CN)c1cccc(F)c1)C2=O (centres unmarked)	5.30 to 6.30
Cc1nc2c(n1O)CCc1nc(-c3ccc(C4(N)CCC4)cc3)c(-c3ccccc3)cc1-2	5.00 to 6.00
CNC[C@H](Cc1cccc(F)c1)NC(=O)c1cc2c(s1)CCCn1ncc(Cl)c1-2	6.29
NC[C@H](Cc1ccc(F)cc1F)NC(=O)c1cc2c(s1)CCCn1ncc(Cl)c1-2	7.11
NC[C@H](Cc1ccc(F)c(F)c1)NC(=O)c1cc2c(s1)OCCn1ncc(Br)c1-2	7.54
N[C@]1(c2ccc(-c3nc4c(cc3-c3ccccc3)-n3c(n[nH]c3=O)CO4)cc2)C[C@H](O)C1	6.00 to 7.00
CC(=O)N1CCOc2nc(-c3ccc(C4(N)CCC4)cc3)c(-c3ccccc3)cc21	< 5.00
Cc1ccc(S(=O)(=O)NCc2c[nH]c3ncccc23)cc1	≥ 5.00

Attention now shifts to the item below.
Sample Cn1ncc(Cl)c1-c1ccc2c(c1)CN([C@H](CN)CC1CC1)C2=O , system: RAC-gamma serine/threonine-protein kinase (Homo sapiens, UniProt Q9Y243). Its pIC50 is 5.30 to 6.30

###

Note to self: these compounds have pIC50 reported for RAC-gamma serine/threonine-protein kinase (Homo sapiens) in various publications.
pIC50: −log10 of the molar value.

Known results for compounds:
Cn1nccc1-c1ccc2c(c1)CN([C@H](CN)Cc1cccc(-c3cncnc3)c1)C2=O	< 5.30
CC(C)NC[C@@H](C(=O)N1[C@@H]2CC[C@H]1CN(c1ncnc3[nH]ccc13)C2)c1ccc(Cl)cc1	7.56
CC(C)OCc1cnn(C)c1-c1ccc2c(c1)CN([C@H](CN)Cc1ccccc1)C2=O	> 6.30

Attention now shifts to the item below.
Sample O=C(NCc1ccccc1)c1ccc(-c2c[nH]c3ncccc23)cc1 , system: RAC-gamma serine/threonine-protein kinase (Homo sapiens). Its pIC50 is ≥ 5.00

###

Note to self: these compounds have IC50 reported for RAC-gamma serine/threonine-protein kinase (Homo sapiens, UniProt Q9Y243) in various publications.

Known results for compounds:
CC(=O)CN1C(=O)COc2nc(-c3ccc(C4(N)CCC4)cc3)c(-c3ccccc3)cc21	1000 to 10000 nM
CS(=O)(=O)c1cccc(-c2cnc3[nH]cc(C(=O)c4cc(O)ccc4F)c3c2)c1	≤ 10000 nM
Cn1nccc1-c1ccc2c(n1)CN([C@H](CN)Cc1cccc(F)c1)C2=O	500 to 5000 nM

Sample C[C@]1(O)C[C@@](N)(c2ccc(-c3nc4c(cc3-c3ccccc3)N(CC(F)(F)F)C(=O)CO4)cc2)C1 , system: RAC-gamma serine/threonine-protein kinase (Homo sapiens, UniProt Q9Y243). Its IC50 is 1000 to 10000 nM

Sample NC[C@H](Cc1ccc(F)c(F)c1)NC(=O)c1cc2c(s1)CCCn1ncc(Br)c1-2 , system: RAC-gamma serine/threonine-protein kinase (Homo sapiens, UniProt Q9Y243). Its IC50 is 10 nM

Sample CCOC(=O)CN1C(=O)COc2nc(-c3ccc(C4(N)CCC4)cc3)c(-c3ccccc3)cc21 , system: RAC-gamma serine/threonine-protein kinase (Homo sapiens, UniProt Q9Y243). Its IC50 is 100 to 1000 nM

###

Note to self: these compounds have pIC50 reported for RAC-gamma serine/threonine-protein kinase (Homo sapiens) in various publications.
pIC50: −log10 of the molar value.

Known results for compounds:
NC1(c2ccc(-c3nc4c(cc3-c3ccccc3)N(CC(F)(F)F)C(=O)CO4)cc2)CCC1	5.00 to 6.00
NC[C@H](Cc1cccc(F)c1F)NC(=O)c1cc2c(s1)CCCn1ncc(Br)c1-2	7.35
CC(C)NC[C@H](Cc1cccc(F)c1)N1Cc2cc(-c3c(Cl)cnn3C)ccc2C1=O	5.30 to 6.30
N#CCN1C(=O)COc2nc(-c3ccc(CN)cc3)c(-c3ccccc3)cc21	5.00 to 6.00
NC1(c2ccc(-c3nc4c(cc3-c3ccccc3)N(Cc3cscn3)C(=O)CO4)cc2)CCC1	5.00 to 6.00
N#Cc1cnn2c1-c1cc(C(=O)N[C@H](CN)Cc3ccc(F)c(F)c3)sc1OCC2	6.38
Oc1ccc(Nc2ccnc3[nH]ccc23)cc1	≥ 5.00
Cn1ncc(COC2CCC2)c1-c1ccc2c(c1)CN([C@H](CN)Cc1cc(F)cc(F)c1)C2=O	> 6.30

Sample COc1ccc(C(CN)N2Cc3cc(-c4ccnn4C)ccc3C2=O)cc1 (stereo not drawn) , system: RAC-gamma serine/threonine-protein kinase (Homo sapiens). Its pIC50 is < 5.30

Sample CCN1C(=O)COc2nc(-c3ccc([C@]4(N)C[C@@H](O)C4)cc3)c(-c3ccccc3)cc21 , system: RAC-gamma serine/threonine-protein kinase (Homo sapiens). Its pIC50 is 5.00 to 6.00

Sample CCOCc1cnn(C)c1-c1ccc2c(c1)CN([C@H](CN)Cc1cc(F)cc(F)c1)C2=O , system: RAC-gamma serine/threonine-protein kinase (Homo sapiens). Its pIC50 is > 6.30

Sample Cc1cnn(C)c1-c1cc2c(cn1)C(=O)N([C@H](CN)Cc1cc(F)cc(F)c1)C2 , system: RAC-gamma serine/threonine-protein kinase (Homo sapiens). Its pIC50 is > 6.30

Sample CC1Oc2nc(-c3ccc(C4(N)CCC4)cc3)c(-c3ccccc3)cc2N(C)C1=O (stereo not drawn) , system: RAC-gamma serine/threonine-protein kinase (Homo sapiens). Its pIC50 is 5.00 to 6.00

Sample Cc1cnn2c1-c1cc(C(=O)N[C@H](CN)Cc3cc(F)cc(F)c3)sc1OCC2 , system: RAC-gamma serine/threonine-protein kinase (Homo sapiens). Its pIC50 is 6.77

Sample CN1C(=O)NCc2nc(-c3ccc(C4(N)CCC4)cc3)c(-c3ccccc3)cc21 , system: RAC-gamma serine/threonine-protein kinase (Homo sapiens). Its pIC50 is 5.00 to 6.00

Sample NC1(c2ccc(-c3nc4c(cc3-c3ccccc3)-n3c(nnc3C(F)F)CO4)cc2)CCC1 , system: RAC-gamma serine/threonine-protein kinase (Homo sapiens). Its pIC50 is 6.00 to 7.00
